Assay setup: acidic group
Reported endpoint: pKa
API note: the answer field is a bare number with no unit suffix.

// `Cc1ccc(S(=O)(=O)NC(=O)OCc2ccccc2)cc1` : pKa value = 4.21

// `Nc1nc(N)nc([S-])n1` : pKa value = 10.2

// `O=[N+]([O-])/C(=N/O)c1ccc(Cl)cc1` : pKa value = 6.6

// `Oc1cnc2ccccc2c1` : pKa value = 8.06

// `CC(=O)N[C@H]1CONC1=O` : pKa value = 5.8

// `C[n+]1ccc2c(O)cccc2c1` : pKa value = 6.9

// `O=Nc1ccc(O)cc1` : pKa value = 6.2

// `C/C(=N/O)c1ccc(O)cc1O` : pKa value = 8.35

// `O=C1C=C(S(=O)(=O)[O-])/C(=N/O)c2[nH]ncc21` : pKa value = 7.15

// `O=C(Cc1ccccc1)c1cc[n+]([CH-]c2cccc([N+](=O)[O-])c2)cc1` : pKa value = 11.6

// `O=C1NC(=O)[C@@H]2CCCC[C@H]12` : pKa value = 9.72

// O=C(O)C1CCC[NH2+]1 (centres undefined) : pKa value = 1.99

// `COc1ccc(C(=S)Nc2ccc(Cl)cc2)cc1` : pKa value = 10.9

// `O=C(O)[C@H](O)c1ccccc1[N+](=O)[O-]` : pKa value = 3.15

---

Assay setup: acidic group
For each entry below, report its pKa value.

// `O=C(O)C[C@]1(O)C[C@@H]2CC[C@H]1C2` : pKa value = 4.46

// CC(=O)C1CCCCC1=O (configuration not stated) : pKa value = 10.2

// `NCCc1ccc(O)c(O)c1` : pKa value = 10.6

// `O=c1cc(S(=O)(=O)[O-])[nH]c(=O)[nH]1` : pKa value = 7.26

// `O=NNc1nc([N+](=O)[O-])nn1-c1ccccc1` : pKa value = 3.33

// `Oc1onc(-c2ccccc2)c1Br` : pKa value = 2.3

// `Cc1ccc(=O)c(O)c(Br)c1` : pKa value = 6.41

---

For each entry below, report its pKa value.
Assay setup: acidic group
API note: the answer field is a bare number with no unit suffix.

// `CCCc1c(O)n2c3cc(C)ccc3nc(N(C)C)n2c1=O` : pKa value = 6.55

// O=C(O)C(F)c1ccccc1 (stereo not given) : pKa value = 2.45

// `O=c1[nH]cc(SSc2c[nH]c(=O)[nH]c2=O)c(=O)[nH]1` : pKa value = 8

// `Nc1nnn[nH]1` : pKa value = 5.98

// `CC1=CC(C)=Nc2ccc(C)cc2N1` : pKa value = 5.8

// `CC(=O)c1ccc(O)c([N+](=O)[O-])c1` : pKa value = 5.09

// `Cc1nn(-c2ccccc2)c(O)c1C` : pKa value = 11.3

// `[NH3+]CCc1cccc(O)c1` : pKa value = 9.27

// `O=C(O)CCc1ccoc1` : pKa value = 4.44

// `NC(=O)C[C@H](N)C(N)=O` : pKa value = 7

// `C[S+](C)c1cccc(O)c1` : pKa value = 7.67

// `N#CC(C#N)=NNc1ccc(/N=N/c2ccccc2)cc1` : pKa value = 7.33

// `O[n+]1c2ccccc2cc2ccccc21` : pKa value = 1.37

// `O=C([O-])[C@@H]1O[C@H](Oc2ccc3[nH+]c(O)ccc3c2)[C@@H](O)[C@H](O)[C@H]1O` : pKa value = 3.75

// `CCc1c(C)nn(-c2ccccc2)c1O` : pKa value = 11.5

// `CC(C)c1cccc(C(=O)O)c1` : pKa value = 4.27

// `[O-]/C(O)=C1\SCc2ccccc21` : pKa value = 12.8

// CCC(O)C(C(=O)O)c1ccc(-c2ccccc2)cc1 (stereo not given) : pKa value = 4.16

// `S=CNc1cccc(Cl)c1` : pKa value = 10.8

// `O=C(O)[C@@H]1O[C@H](Oc2cccc3ccc[nH+]c23)[C@@H](O)[C@H](O)[C@H]1O` : pKa value = 3.01

// `Cc1cc(=O)oc2cc(O)c(Cl)cc12` : pKa value = 6.1

// `O=C(O)/C=C/c1ccco1` : pKa value = 4.29

// `C=CC(=O)O` : pKa value = 4.25

// `C[NH+](C)c1ccccc1C(=O)O` : pKa value = 1.4

// `O=C(O)c1csc(Br)n1` : pKa value = 3.28

// Oc1ccccc1C1CCNCCNCCCNCCN1 (stereo not given) : pKa value = 10.8

// `O=C(CC(=O)c1ccccc1)Nc1ccc([N+](=O)[O-])cc1` : pKa value = 8.91

// `CC(C)(C)CC(=O)O` : pKa value = 5.01

// `Nc1nc(O)[nH+]c2nc[nH]c12` : pKa value = 4.51

// `CC(C)([NH3+])C(=O)O` : pKa value = 2.39

---

Assay setup: acidic group
Threshold check on pKa: at or above 6 gives rule met, strictly below gives rule not met.

**Q:** Say whether `CC(C)[NH2+]CC(=O)O` shows pKa of 6 or more.
**A:** rule not met

**Q:** Say whether `CCOC(=O)/C=C(/C)O` shows pKa of 6 or more.
**A:** rule met

**Q:** Say whether `Cc1nnc(NS(=O)(=O)c2ccc(N)cc2)s1` shows pKa of 6 or more.
**A:** rule not met

**Q:** Say whether `COc1nc(-n2nc(C)cc2O)nc(C)c1C` shows pKa of 6 or more.
**A:** rule met

**Q:** Say whether `COc1ccc(-c2nc3ncncc3[nH]2)c(OC)c1` shows pKa of 6 or more.
**A:** rule met

**Q:** Say whether `Cc1cc([N+](=O)[O-])ccc1NN=C(C#N)C#N` shows pKa of 6 or more.
**A:** rule not met

**Q:** Say whether `O=C(NO)c1ccccc1O` shows pKa of 6 or more.
**A:** rule met

---

Assay setup: basic group
For each entry below, report its pKa value.

// `Cn1c2ccccc2c(=N)c2ccccc21` : pKa value = 11

// `CN1CCCCCN1C` : pKa value = 6.66

// `Cc1cc(=O)n(C)n1-c1ccccc1` : pKa value = 2.4

// `CNCC(=O)[O-]` : pKa value = 10.1

// `N#CC(C#N)=NNc1ccc(Cl)cc1` : pKa value = -0.79

// `COc1ccc2nc3c(c(N4CCOCC4)c2c1)CCC3` : pKa value = 7.14

// `CN1C[C@H](C(=O)[O-])C[C@@H]2c3cccc4[nH]cc(c34)C[C@@H]21` : pKa value = 8.57

---

Assay setup: basic group
Returns the class for an entry based on its pKa. Class ranges: 1 (below 5), 2 (5 to below 10), 3 (10 or more)

**Q:** Looking at `Cn1c(=O)c2c(ncn2CC(=O)[O-])n(C)c1=O` , which class would you pick?
**A:** 1

**Q:** Looking at `C[NH2+]Cc1ccccn1` , which class would you pick?
**A:** 1

**Q:** Looking at `CCCN(CCC)CC(=O)NC1c2ccccc2-c2ccccc21` , which class would you pick?
**A:** 2

**Q:** Looking at `C[C@@H]1N[C@H]1C` , which class would you pick?
**A:** 2

**Q:** Looking at CC(C=C(c1cccs1)c1cccs1)N(C)C (configuration not stated) , which class would you pick?
**A:** 2

**Q:** Looking at `Nc1ccc(C(=O)[O-])c2ncccc12` , which class would you pick?
**A:** 2

**Q:** Looking at `COc1cnc2ccccc2n1` , which class would you pick?
**A:** 1

**Q:** Looking at `CCN(CC)Cc1cc(Cl)ccc1[O-]` , which class would you pick?
**A:** 3

**Q:** Looking at `COc1ccccc1N` , which class would you pick?
**A:** 1

**Q:** Looking at `CN(C)c1cccc2c(S(N)(=O)=O)cccc12` , which class would you pick?
**A:** 1

**Q:** Looking at CCCCCCCCCCCCCCCCN(CC(C)O)CC(C)O (configuration not stated) , which class would you pick?
**A:** 2

**Q:** Looking at `CCN(CC)CCCCCCNc1c2ccc(Cl)cc2nc2ccc(OC)cc12` , which class would you pick?
**A:** 3

**Q:** Looking at `CN(C)CCNCCN(C)C` , which class would you pick?
**A:** 2

**Q:** Looking at CCC(O)CN(CC)CC(O)CC (configuration not stated) , which class would you pick?
**A:** 2

**Q:** Looking at `[NH3+]c1ccc(-c2cnc(-c3ccccc3)o2)cc1` , which class would you pick?
**A:** 1

**Q:** Looking at `CCN(CC)S(=O)(=O)c1ccc(N)cc1` , which class would you pick?
**A:** 1

**Q:** Looking at `CN(C)CCCCCCCCCCNC(=O)/C=N/[O-]` , which class would you pick?
**A:** 3

**Q:** Looking at `CN(C)CCC/N=C(\c1ccccc1)c1cccc2ccccc12` , which class would you pick?
**A:** 2

**Q:** Looking at CCCCCCCCN(CC(C)O)CC(O)CC (configuration not stated) , which class would you pick?
**A:** 2

**Q:** Looking at `CN1CCNCC1` , which class would you pick?
**A:** 2

**Q:** Looking at `COc1cccc(NCCS)c1` , which class would you pick?
**A:** 2

**Q:** Looking at `CC(=O)CCCCN(C)C` , which class would you pick?
**A:** 2

**Q:** Looking at `O=C(CCN1CCOCC1)c1cccc(Br)c1` , which class would you pick?
**A:** 2

**Q:** Looking at `CCNc1ccnc([S-])n1` , which class would you pick?
**A:** 3

**Q:** Looking at `CNc1ncccn1` , which class would you pick?
**A:** 1

**Q:** Looking at `Nc1ccc2c(Cl)c3ccccc3nc2c1` , which class would you pick?
**A:** 2

**Q:** Looking at C1CN=C2NCCC2C1 (configuration not stated) , which class would you pick?
**A:** 3

**Q:** Looking at `N=C1CCCC1` , which class would you pick?
**A:** 2
